tested on: secondary alcohol dehydrogenase; assay: Activity of purified yeast-derived secondary alcohol dehydrogenase; assay type: biochemical, Pichia sp. NRRL Y-11,328; settings: spectrophotometric
Endpoint: substrate specificity of purified yeast secondary alcohol dehydrogenase (in words)

# Compound, Result
rows = [
    ("CCCC(C)O (stereo not shown)", "catalyzed the oxidation"),
    ("CC(C)O", "catalyzed the oxidation"),
    ("CC(O)CCO (stereo not shown)", "not oxidized"),
    ("CCC(O)CO (stereo not shown)", "not oxidized"),
    ("CCCCC(C)O (stereo not shown)", "catalyzed the oxidation"),
    ("CO", "not oxidized"),
    ("CCCCCCC(C)O (stereo not shown)", "not oxidized"),
]
